Tested on: KB (Oral squamous) tumor cells
Experiment: MTT cytotoxicity assay, KB cells
Format: cell-based
Conditions: 1 nM, 48 hours
* marks the point of attachment. Palmitoyl = CCCCCCCCCCCCCCCC(=O)*; Octanoyl = CCCCCCCC(=O)*; Butyryl = CCCC(=O)*
Exercise: state measured Percentage cytotoxicity for each of the substances provided.
One number for each entry, in %.

Some substances with recorded Percentage cytotoxicity:
Palmitoyl-Leu-Met-Tyr-Pro-Thr-Tyr-Leu-Lys-OH (Palmitoyl-LMYPTYLK-OH) [DT-P1] = 21.9
n-Butanoyl-Leu-Met-Tyr-Pro-Thr-Tyr-Leu-Lys-OH (Butyryl-LMYPTYLK-OH) [DT-B1] = 21.9
Ac-LMYPTYLK-OH [DT-A1] = 25.9

Entry n-Octanoyl-Leu-Met-Tyr-Pro-Thr-Tyr-Leu-Lys-OH (Octanoyl-LMYPTYLK-OH) [DT-O1] : Percentage cytotoxicity on KB (Oral squamous) tumor cells = 21.0
